Test system: Trypanosoma brucei
METHOD: ST_JUDE: Cytotoxicity using luciferase to measure ATP as an indicator of the viability of Trypanosoma brucei
Type: functional, organism-based
Collected EC50 values appear next to each entry.
Only the number, expressed in µM, is required.

- COMPOUND: "CCOC(=O)C1(Cc2cccc(F)c2)CCN(Cc2ccccc2O)CC1"
  READOUT_TYPE: "EC50"
  READOUT_NUMBER: 25.3

Consider the additional compound presented here.
EC50 measured on CCCO/C(O)=C1\C(C)=NC2=C(C(=O)CC(c3ccc(OC)c(OC)c3)C2)C1c1ccccc1Cl (stereo not given) = 9.3

---

METHOD: ST_JUDE: Cytotoxicity using luciferase to measure ATP as an indicator of the viability of human epithelial embryonic kidney cells (HEK293)
Format: toxicity, cell-based
pEC50: −log10 of the molar value.
Collected pEC50 values appear next to each entry.

- COMPOUND: "Cc1ccc2c(c1)C=C/C(=C\\c1sc3ccccc3[n+]1C)N2C"
  RESULT: 5.18
- COMPOUND: "CCCCOc1ccc(N(C(C)=O)C2=C(N3CCOCC3)C(=O)c3ccccc3C2=O)cc1"
  RESULT: 4.96
- COMPOUND: "CSc1ccc2ccccc2[n+]1C"
  RESULT: "< 4.43"
- COMPOUND: "CCN1/C(=C/c2cccc[n+]2C)Sc2ccc(OC)cc21"
  RESULT: "< 4.58"
- COMPOUND: "Cc1ccccc1/N=C1\\C=C(NS(=O)(=O)c2ccc(F)cc2)c2ccccc2C1=O"
  RESULT: 5.20
- COMPOUND: "CCO/C(O)=C1\\C(C)=NC2=C(C(=O)CC(c3ccc(OC)c(OC)c3)C2)C1c1ccccc1C (configuration not stated)"
  RESULT: "< 4.37"
- COMPOUND: "O=C(c1ccccc1)N1CCN(c2ccccc2NC(=O)C(Cl)(Cl)Cl)CC1"
  RESULT: "< 4.47"
- COMPOUND: "COc1ccc(C2CC(=O)C3=C(C2)NC(=O)CC3c2ccc(C(F)(F)F)cc2)cc1OC (configuration not stated)"
  RESULT: "< 4.32"
- COMPOUND: "CN(C(=O)c1cc2c(s1)-c1ccccc1S(=O)(=O)C2)c1cccc(C(F)(F)F)c1"
  RESULT: "< 4.39"
- COMPOUND: "C[n+]1ccccc1/C=C/c1ccc([N+](=O)[O-])cc1"
  RESULT: "< 4.47"

pEC50 measured on Cc1ccc(NC(=O)C2c3ccccc3C(=O)N(CC(C)C)C2c2cccs2)cc1C (configuration not stated) = < 4.39

pEC50 measured on CC(C)CN1C(=O)c2ccccc2C(C(=O)Nc2ccc(F)cc2F)C1c1cccs1 (configuration not stated) = < 4.36

---

Tested on: Plasmodium falciparum
METHOD: ST_JUDE: Plasmodium falciparum 3D7 EC50 (uM) as measured by SYBR green dye
Format: functional, organism-based
Collected pEC50 values appear next to each entry.
// returns pEC50 (minus log10 of molar concentration), number only

// known answers, use as guide
- MOLECULE: "C=CCn1c(=N)n(CC(O)COc2cccc(C)c2)c2ccccc21 (stereo not given)"
  TESTED_TARGET: "Plasmodium falciparum"
  pEC50: 5.15
- MOLECULE: "COC(=O)CNC(c1ccccc1)c1cc(Br)ccc1NC(=O)c1ccccc1 (stereo not given)"
  TESTED_TARGET: "Plasmodium falciparum"
  pEC50: 5.17
- MOLECULE: "Oc1ccc(Br)cc1CN1CCN(C2CC3CCC2C3)CC1 (stereo not given)"
  TESTED_TARGET: "Plasmodium falciparum"
  pEC50: 6.54
- MOLECULE: "CCCO/C(O)=C1\\C(C)=NC2=C(C(=O)CC(c3ccc(OC)c(OC)c3)C2)C1c1ccccc1C (stereo not given)"
  TESTED_TARGET: "Plasmodium falciparum"
  pEC50: 6.51
- MOLECULE: "COc1cccc(C(=O)NC(c2ccc(Cl)cc2)c2cc(Cl)c3cccnc3c2O)c1 (stereo not given)"
  TESTED_TARGET: "Plasmodium falciparum"
  pEC50: 5.70
- MOLECULE: "COc1ccc(Nc2cc(C)nc(N3CCN(C(=O)c4ccccc4C(F)(F)F)CC3)n2)cc1"
  TESTED_TARGET: "Plasmodium falciparum"
  pEC50: 5.45
- MOLECULE: "COc1ccc(CN2CCN(CC(C)(C)C)C(CCO)C2)c(O)c1 (stereo not given)"
  TESTED_TARGET: "Plasmodium falciparum"
  pEC50: 5.12
- MOLECULE: "COc1ccccc1Cn1ccnc1SCC(=O)Nc1cc(C)ccc1C"
  TESTED_TARGET: "Plasmodium falciparum"
  pEC50: 5.71

Consider the additional molecule presented here.
Simply: CC(C)(C)CC(C)(C)c1ccc(O)c(CN2CCN(c3ccccc3)CC2)c1 , Plasmodium falciparum, pEC50 = 6.45

---

Collected EC50 values appear next to each entry.
METHOD: ST_JUDE: Cytotoxicity using luciferase to measure ATP as an indicator of the viability of human Burkitt''s lymphoma lymphoblast cells (Raji)
Type: toxicity, cell-based

- COMPOUND: "COc1ccc(NC(=O)C2c3ccccc3C(=O)N(CC(C)C)C2c2cccs2)cc1 (stereo not given)"
  EC50: "> 47.7 µM"
- COMPOUND: "CCCO/C(O)=C1\\C(C)=NC2=C(C(=O)CC(c3ccc(OC)c(OC)c3)C2)C1c1ccccc1F (stereo not given)"
  EC50: "> 41.1 µM"
- COMPOUND: "Cc1c2[nH]c3ccccc3c2c2c([n+]1C)CC(C)(C)CC2"
  EC50: "> 55.5 µM"
- COMPOUND: "O=[N+]([O-])c1ccc2c(c1)c1ccccc1n2Cc1ccccc1O"
  EC50: "18.2 µM"
- COMPOUND: "CCc1nc2nc(C)cc(Nc3ccc(I)cc3)n2n1"
  EC50: "> 39.5 µM"

EC50 measured on CCO/C(O)=C1\C(C)=NC2=C(C(=O)CC(c3ccc(OC)c(OC)c3)C2)C1c1ccc([N+](=O)[O-])cc1 (stereo not given) = > 43.9 µM

EC50 measured on COc1ccc(Nc2cc(C)nc(Nc3ccc(NS(=O)(=O)c4ccc(OC)cc4)cc3)n2)cc1 = 14.3 µM

EC50 measured on Cc1ccc(NC(=O)c2c(I)cnn2C)cc1[N+](=O)[O-] = > 45.7 µM

EC50 measured on Cc1ccccc1/N=C1\C=C(NS(=O)(=O)c2ccc(F)cc2)c2ccccc2C1=O = 3.14 µM

EC50 measured on CCOc1ccc(NC(=O)C2c3ccccc3C(=O)N(CC(C)C)C2c2cccs2)cc1 (stereo not given) = > 42.8 µM

EC50 measured on O=[N+]([O-])c1ccc(S(=O)(=O)N2CCN(C(=S)NCc3ccco3)CC2)cc1 = > 31.7 µM

EC50 measured on Fc1ccc(Nc2nc(NCc3ccco3)c3ccccc3n2)cc1 = 14.9 µM

EC50 measured on OC(CNC1CCCC1)Cn1c2ccc(Cl)cc2c2cc(Cl)ccc21 (stereo not given) = 10.9 µM

EC50 measured on Cc1ccc(NC(=O)C2c3ccccc3C(=O)N(CC(C)C)C2c2cccs2)cc1C (stereo not given) = > 41.2 µM

EC50 measured on N=c1n(CCN2CCCCC2)c2ccccc2n1CC(O)c1ccc(Cl)c(Cl)c1 (stereo not given) = 21 µM

EC50 measured on Cc1ccc(NC(=O)C2c3ccccc3C(=O)N(CC(C)C)C2c2cccs2)c(Cl)c1 (stereo not given) = > 44.1 µM

EC50 measured on CCCO/C(O)=C1\C(C)=NC2=C(C(=O)CC(c3ccc(OC)cc3)C2)C1c1ccc([N+](=O)[O-])cc1 (stereo not given) = > 45.2 µM

EC50 measured on CCN1/C(=C/c2cccc[n+]2C)C=Cc2cc(C)ccc21 = > 32.2 µM

EC50 measured on CC(C)CN1C(=O)c2ccccc2C(C(=O)Nc2ccc(F)c(Cl)c2)C1c1cccs1 (stereo not given) = > 42.3 µM

---

System: Plasmodium falciparum
METHOD: ST_JUDE: Plasmodium falciparum 3D7 EC50 (uM) as measured by SYBR green dye
Assay type: functional, organism-based
READOUT_TYPE: pEC50
// returns pEC50 (minus log10 of molar concentration), number only

pEC50 measured on CCc1ccc(S(=O)(=O)/N=C2/C=C(Sc3nc[nH]n3)C(=O)c3ccccc32)cc1 = 5.32

pEC50 measured on Clc1cccc(/C=N/Nc2[nH]cnc3ncnc2-3)c1 = 5.64

pEC50 measured on Cc1ccc(Nc2cc(C)nc(Nc3ccc(NS(=O)(=O)c4cccc(Cl)c4)cc3)n2)cc1 = 5.84

---

Collected EC50 values appear next to each entry.
METHOD: ST_JUDE: Cytotoxicity using luciferase to measure ATP as an indicator of the viability of human Burkitt''s lymphoma lymphoblast cells (Raji)
Type: toxicity, cell-based
Only the number, expressed in µM, is required.

- SAMPLE_SMILES: "CCCCOc1ccc(N(C(C)=O)C2=C(N3CCOCC3)C(=O)c3ccccc3C2=O)cc1"
  U: "µM"
  READOUT_NUMBER: 3.82
- SAMPLE_SMILES: "CCCCCOc1ccc(N(C(C)=O)C2=C(N3CCOCC3)C(=O)c3ccccc3C2=O)cc1"
  U: "µM"
  READOUT_NUMBER: 3.26

Consider the additional compound presented here.
EC50 measured on CCOc1ccc(Nc2nc(NCc3ccccc3)c3ccccc3n2)cc1 = 8.22
